Every entry's value here was drawn from paper PMC5298233.

# STUDY_TARGET: UniProtKB A7AX62
# Sequence (A7AX62 1-279): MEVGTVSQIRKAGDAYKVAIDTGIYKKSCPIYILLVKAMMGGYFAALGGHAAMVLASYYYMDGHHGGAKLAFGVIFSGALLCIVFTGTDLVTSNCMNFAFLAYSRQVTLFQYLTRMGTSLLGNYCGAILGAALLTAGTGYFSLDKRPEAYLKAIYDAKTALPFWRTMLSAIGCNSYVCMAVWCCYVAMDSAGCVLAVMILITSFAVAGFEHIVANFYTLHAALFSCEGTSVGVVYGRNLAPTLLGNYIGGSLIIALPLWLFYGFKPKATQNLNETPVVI
PROPERTY_LABEL: IC50 (µM)

COc1ccc2c(c1)OC(O)(C(F)(F)C(F)(F)F)CC2=O (stereo not shown); 150

====

# STUDY_TARGET: rat MCT1 (Rattus norvegicus)
# Sequence (P53987 1-494): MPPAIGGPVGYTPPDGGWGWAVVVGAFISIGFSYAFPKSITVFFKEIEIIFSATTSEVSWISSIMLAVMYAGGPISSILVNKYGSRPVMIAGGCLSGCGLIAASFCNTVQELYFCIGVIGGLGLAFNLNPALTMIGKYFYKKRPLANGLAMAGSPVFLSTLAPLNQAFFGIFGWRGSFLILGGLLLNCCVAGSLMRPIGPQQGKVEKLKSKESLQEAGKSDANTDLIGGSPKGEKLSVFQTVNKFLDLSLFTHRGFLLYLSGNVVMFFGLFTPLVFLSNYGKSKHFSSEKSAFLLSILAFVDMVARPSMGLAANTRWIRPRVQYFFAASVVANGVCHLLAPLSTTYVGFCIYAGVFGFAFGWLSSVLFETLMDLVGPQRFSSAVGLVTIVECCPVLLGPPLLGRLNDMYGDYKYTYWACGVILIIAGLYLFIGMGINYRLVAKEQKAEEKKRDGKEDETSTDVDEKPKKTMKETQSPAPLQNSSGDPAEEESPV
# ASSAY_INFO: L-lactate transport inhibition of MCT1 expressed in yeast
PROPERTY_LABEL: IC50

COc1ccc2c(c1)OC(O)(C(F)(F)C(F)(F)F)CC2=O (stereo not shown); 55 µM
